Cited source: patent US20200157174A1

# system: T1, recombinant mouse NKG2D-Fc (mouse; human, UniProt O54709 90-232)
# T1 construct: extracellular domain; also called mouse NKG2D-Fc fusion protein; Mouse NKG2D-Fc-biotin; not shown: human IgG1 Fc domain
# T1 sequence (looked up): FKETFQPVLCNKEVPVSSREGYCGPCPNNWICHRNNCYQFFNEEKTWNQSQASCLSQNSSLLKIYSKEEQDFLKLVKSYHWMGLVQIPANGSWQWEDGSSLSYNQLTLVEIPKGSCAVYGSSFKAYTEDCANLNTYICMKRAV
# procedure summary: ELISA on coated NKG2D-Fc;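 note: titrated NKG2D-binding domains on plate-bound human, mouse or cynomolgus NKG2D ectodomain–human IgG1 Fc fusions, detected with HRP anti-human kappa secondary and TMB, absorbance at 450 nm corrected at 540 nm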
property name: binding result

ADI-29424 (antibody, V domains shown) VH: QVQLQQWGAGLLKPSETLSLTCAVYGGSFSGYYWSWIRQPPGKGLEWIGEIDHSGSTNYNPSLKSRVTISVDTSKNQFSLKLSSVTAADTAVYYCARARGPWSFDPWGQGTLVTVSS VL: DIQMTQSPSTLSASVGDRVTITCRASQSISSWLAWYQQKPGKAPKLLIYKASSLESGVPSRFSGSGSGTEFTLTISSLQPDDFATYYCQQYDSFITFGGGTKVEIK : binds
